- Target entity: Aβ (1-40) peptide (Homo sapiens, UniProt P05067)
- Protocol description: Thioflavin T fluorescence assay of β-amyloid peptide aggregation
- Assay type: biochemical
- Settings: 30 μM peptide, 25° C., 2 hours, ThT fluorescence
Measured metric: Inhibition of aggregation of β-amyloid peptides

CCCCOP(=O)(OCCCC)OCCCCCCOP(=O)(OCCCC)OCCCC [Compound 62, Tetrabutyl hexane-1,6-diyl bisphosphate] = significantly inhibited
O=P(OCCCCCCOP(=O)(Oc1ccccc1)Oc1ccccc1)(Oc1ccccc1)Oc1ccccc1 [Compound 67, Tetraphenyl hexane-1,6-diyl bisphosphate] = significantly inhibited
CCOP(=O)(OCC)OCCCCCCOP(=O)(OCC)OCC [Compound 56, Tetraethyl hexane-1,6-diyl bisphosphate] = significantly inhibited

---

- Target entity: ACHE (Homo sapiens (Human), UniProt P22303)
- Sequence (P22303 32-614): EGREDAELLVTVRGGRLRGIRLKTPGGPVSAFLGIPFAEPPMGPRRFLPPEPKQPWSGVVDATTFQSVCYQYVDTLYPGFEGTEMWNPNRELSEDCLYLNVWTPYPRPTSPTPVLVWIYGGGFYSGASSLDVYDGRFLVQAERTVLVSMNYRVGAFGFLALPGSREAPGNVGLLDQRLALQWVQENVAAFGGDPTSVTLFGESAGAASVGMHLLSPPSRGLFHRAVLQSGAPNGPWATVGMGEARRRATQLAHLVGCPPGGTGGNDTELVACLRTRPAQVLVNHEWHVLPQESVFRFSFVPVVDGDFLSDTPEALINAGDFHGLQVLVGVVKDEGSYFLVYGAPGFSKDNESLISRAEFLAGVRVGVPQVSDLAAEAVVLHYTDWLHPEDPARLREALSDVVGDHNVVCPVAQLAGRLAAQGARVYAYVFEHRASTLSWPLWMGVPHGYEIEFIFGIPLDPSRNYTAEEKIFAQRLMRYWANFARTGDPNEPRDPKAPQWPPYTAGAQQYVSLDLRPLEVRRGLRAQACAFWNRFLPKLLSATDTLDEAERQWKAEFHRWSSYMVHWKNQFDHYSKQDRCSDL
- Protocol description: ACHE inhibition, colorimetric with substrate and Ellman's reagent
- Format: biochemical
- Settings: enzyme incubated 2 hours with compound
Measured metric: IC50 (µM)
Expressed in µM, but write only the number.

Look up and state reported IC50 for CCCCOP(=O)(OCCCC)Oc1ccccc1Cl [Compound 9, Di-n-butyl 2-chlorophenyl phosphate] 47

---

- Target entity: BCHE (Homo sapiens (Human), UniProt P06276)
- Sequence (P06276 29-602, species assumed): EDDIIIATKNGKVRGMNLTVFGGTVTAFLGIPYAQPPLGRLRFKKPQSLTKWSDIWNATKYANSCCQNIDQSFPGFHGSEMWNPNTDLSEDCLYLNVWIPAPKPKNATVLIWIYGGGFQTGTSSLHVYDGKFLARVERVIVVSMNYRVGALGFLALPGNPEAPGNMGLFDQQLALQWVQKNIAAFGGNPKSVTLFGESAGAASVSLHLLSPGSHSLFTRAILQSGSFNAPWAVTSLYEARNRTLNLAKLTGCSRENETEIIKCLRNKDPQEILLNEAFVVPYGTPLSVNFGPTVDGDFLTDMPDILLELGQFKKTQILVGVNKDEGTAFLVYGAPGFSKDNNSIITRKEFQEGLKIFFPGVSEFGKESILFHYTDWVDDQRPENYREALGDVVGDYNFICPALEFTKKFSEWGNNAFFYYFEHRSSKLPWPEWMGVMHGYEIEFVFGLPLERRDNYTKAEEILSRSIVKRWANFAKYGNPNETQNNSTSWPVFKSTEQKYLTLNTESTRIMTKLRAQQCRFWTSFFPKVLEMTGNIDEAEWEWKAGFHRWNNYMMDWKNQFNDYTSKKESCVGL
- Type: biochemical
- Settings: 20 μM inhibitor, 2 minutes; Activity of Inhibitor incubated enzyme/Activity of unincubated enzyme
Measured metric: Relative Activity of BCHE
Form: value (number only, do not type unit).

Examples from the recorded data:
CCCCOP(=O)(Cc1cccc2ccccc12)OCCCC [Compound 89, Di-n-butyl 1-naphthylmethylphosphonate] = 0.47
CCCCOP(=O)(OCCCC)Oc1cc(C)cc(C)c1 [Compound 27, Di-n-butyl 3,5-dimethylphenyl phosphate] = 0.45
CCCCOP(=O)(Cc1ccc2ccccc2c1)OCCCC [Compound 90, Di-n-butyl 2-naphthylmethylphosphonate] = 0.45

Give Relative Activity of BCHE for CCCCOP(=O)(Cc1cc(C)cc(C)c1)OCCCC [Compound 92, Di-n-butyl 3,5-dimethylbenzylphosphonate] tested on BCHE (Homo sapiens (Human), UniProt P06276). 0.64

Give Relative Activity of BCHE for CCCCOP(=O)(OCCCC)Oc1ccc2ccccc2c1 [Compound 35, Di-n-butyl 2-napthyl phosphate] tested on BCHE (Homo sapiens (Human), UniProt P06276). 0.10
